target: human TRPV3 L557A mutant (Homo sapiens, UniProt Q8NET8, L557A); assay: Fura-2AM Ca2+ uptake measurements, L557A mutant
Sequence (Q8NET8 1-791 isoform Q8NET8-2 L557A): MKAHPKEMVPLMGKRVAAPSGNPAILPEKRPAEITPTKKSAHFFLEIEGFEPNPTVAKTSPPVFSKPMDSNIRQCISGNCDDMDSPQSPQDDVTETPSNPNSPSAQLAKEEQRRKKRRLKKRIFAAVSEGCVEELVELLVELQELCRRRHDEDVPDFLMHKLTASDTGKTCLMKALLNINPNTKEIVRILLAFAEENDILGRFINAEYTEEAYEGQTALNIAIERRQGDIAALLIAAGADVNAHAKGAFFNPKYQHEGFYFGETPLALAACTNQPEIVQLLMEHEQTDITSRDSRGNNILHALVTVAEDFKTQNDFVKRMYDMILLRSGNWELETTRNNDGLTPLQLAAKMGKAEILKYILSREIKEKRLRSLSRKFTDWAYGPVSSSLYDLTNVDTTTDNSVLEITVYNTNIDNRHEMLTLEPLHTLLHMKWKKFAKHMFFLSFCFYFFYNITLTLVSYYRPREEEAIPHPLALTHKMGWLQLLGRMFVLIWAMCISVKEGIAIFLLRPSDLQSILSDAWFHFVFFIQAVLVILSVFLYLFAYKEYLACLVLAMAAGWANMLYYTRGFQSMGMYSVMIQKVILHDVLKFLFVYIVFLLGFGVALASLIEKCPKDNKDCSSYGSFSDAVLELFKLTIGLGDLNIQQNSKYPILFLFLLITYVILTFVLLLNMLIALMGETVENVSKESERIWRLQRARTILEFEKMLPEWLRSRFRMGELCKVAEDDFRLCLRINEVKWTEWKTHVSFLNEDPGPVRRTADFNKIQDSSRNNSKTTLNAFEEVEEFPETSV

{"COMPOUND": "CCCc1cc(O)c2c(c1)OC(C)(C)[C@@H]1CCC(C)=C[C@@H]21 [THCV, tetrahydrocannabivarin]", "UNITS": "nM", "EC50": 81}

====

target: wild-type human TRPV3 (Homo sapiens, UniProt Q8NET8); experiment: Fura-2AM ratiometric Ca2+ uptake measurements, wild-type TRPV3
Sequence (Q8NET8 1-791 isoform Q8NET8-2): as the sequence (Q8NET8 1-791 isoform Q8NET8-2 L557A) above, with A557L counted along it
pEC50: −log10 of the molar value.
VALUE_TYPE: pEC50

{"MOLECULE": "CCCc1cc(O)c2c(c1)OC(C)(C)[C@@H]1CCC(C)=C[C@@H]21 [THCV, tetrahydrocannabivarin]", "VALUE_TYPE": "pEC50", "RESULT": 5.21}
